Square brackets hold non-standard residues; d marks the D form. Peptide text beside a SMILES is read from it. * marks the point of attachment. Benzoyl(4-(4-hexylphenyl)) = CCCCCCc1ccc(-c2ccc(C(=O)*)cc2)cc1; boroAla = C[C@H](N*)B(O)O; Orn = NCCC[C@H](N)C(=O)O
Please consider the recorded IC50 for Signal peptidase I (Escherichia coli K-12) in what follows.
Report the figure in µM without appending any unit label.

Examples with their reported IC50 follow.
compound: CCCCCCc1ccc(-c2ccc(C(=O)N[C@@H](CCCN)C(=O)N(C)[C@H](C(=O)N[C@@H](C)C(=O)N[C@H]3Cc4cn(nn4)CCCN4C[C@@H]5OB(O[C@@H]5C4)[C@H](C)NC3=O)[C@@H](C)O)cc2)cc1
result-number: 0.098

compound: CCCCCCc1ccc(-c2ccc(C(=O)N[C@@H](CCCN)C(=O)N[C@H](C(=O)N[C@@H](C)C(=O)N[C@@H](CC(N)=O)C(=O)N[C@@H](C)B(O)O)[C@@H](C)O)cc2)cc1 ({Benzoyl(4-(4-hexylphenyl))}-[Orn]TAN-boroAla)
result-number: 0.052

compound: CCCCCCc1ccc(-c2ccc(C(=O)N[C@@H](CCCNC(=N)N)C(=O)N[C@H](C(=O)N[C@@H](C)C(=O)N[C@H]3Cc4cn(nn4)CCCN4C[C@@H]5OB(O[C@@H]5C4)[C@H](C)NC3=O)[C@@H](C)O)cc2)cc1
result-number: 0.041

# context switch: different compound, same IC50
Entry CCCCCCc1ccc(-c2ccc(C(=O)N[C@@H](Cc3cnc[nH]3)C(=O)N[C@H](C(=O)N[C@@H](C)C(=O)N[C@H]3Cc4cn(nn4)CCCN4C[C@@H]5OB(O[C@@H]5C4)[C@H](C)NC3=O)[C@@H](C)O)cc2)cc1 , system Signal peptidase I (Escherichia coli K-12): what IC50 was measured?
0.107

* * *

Listed here: items and their measured Activity.
- target-under-test: Signal peptidase I (Escherichia coli K-12) (UniProt P00803)
- test-summary: Inhibition of Escherichia coli type 1 signal peptidase lepB assessed as residual activity at 0.1563 uM preincubated for 10 mins followed by Dabcyl-VGGTATAYGAFSRPGLE-(EDANS)-OH substrate addition measured after 2 hrs by FRET based assay (reference value: 100%)
Square brackets hold non-standard residues; d marks the D form. Peptide text beside a SMILES is read from it. * marks the point of attachment. Benzoyl(4-(4-hexylphenyl)) = CCCCCCc1ccc(-c2ccc(C(=O)*)cc2)cc1; X1 = C[C@H](N*)B1OC2C[C@@H]3C[C@@H](C3(C)C)[C@]2(C)O1; boroAla = C[C@H](N*)B(O)O; Orn = NCCC[C@H](N)C(=O)O
Report the figure in % without appending any unit label.

Examples with their reported Activity follow.
compound: CCCCCCC#Cc1cncc(C(=O)N[C@@H](CCCN)C(=O)N[C@H](C(=O)N[C@@H](C)C(=O)N[C@H]2Cc3cn(nn3)CCO[C@@H]3C[C@@H]4OB(O[C@@H]4C3)[C@H](C)NC2=O)[C@@H](C)O)c1
readout-name: Activity
result-number: 10.6
//
compound: C[C@@H]1NC(=O)[C@@H](NC(=O)[C@H](C)NC(=O)[C@@H](NC(=O)[C@H](CCCN)NC(=O)c2ccc(-c3ccccc3)cc2)[C@@H](C)O)Cc2cn(nn2)CCO[C@@H]2C[C@@H]3OB1O[C@@H]3C2
readout-name: Activity
result-number: 26.4
//
compound: C[C@@H]1NC(=O)[C@@H](NC(=O)[C@H](C)NC(=O)[C@@H](NC(=O)[C@H](CCCN)NC(=O)C#Cc2ccc(-c3ccccc3)cc2)[C@@H](C)O)Cc2cn(nn2)CCO[C@@H]2C[C@@H]3OB1O[C@@H]3C2
readout-name: Activity
result-number: 58.2
//
compound: CCCCCCc1ccc(-c2ccc(C(=O)N[C@@H](CCCN)C(=O)N[C@H](C(=O)N[C@@H](C)C(=O)N[C@H]3Cc4cn(nn4)CCN4C[C@@H]5OB(O[C@@H]5C4)[C@H](C)NC3=O)[C@@H](C)O)cc2)cc1
readout-name: Activity
result-number: 47.2
//
compound: CCCCCCc1ccc(-c2ccc(C(=O)N[C@@H](CCCN)C(=O)N[C@H](C(=O)N[C@@H](C)C(=O)N[C@H]3Cc4cn(nn4)CCCN4C[C@@H]5OB(O[C@@H]5C4)[C@H](C)NC3=O)[C@@H](C)O)cc2)cc1
readout-name: Activity
result-number: 47.3
//
compound: C[C@@H]1NC(=O)[C@@H](NC(=O)[C@H](C)NC(=O)[C@@H](NC(=O)[C@H](CCCN)NC(=O)c2ccc(=O)n(-c3ccccc3)c2)[C@@H](C)O)Cc2cn(nn2)CCO[C@@H]2C[C@@H]3OB1O[C@@H]3C2
readout-name: Activity
result-number: 105
//
compound: CCCCCCc1ccc(-c2ccc(C(=O)N[C@@H](CCCN)C(=O)N[C@H](C(=O)N[C@@H](C)C(=O)N[C@H]3Cc4cn(nn4)CCO[C@@H]4C[C@@H]5OB(O[C@@H]5C4)[C@H](C)NC3=O)[C@@H](C)O)cc2)cc1
readout-name: Activity
result-number: 57.6
//
compound: CCCCCCc1ccc(-c2ccc(C(=O)N[C@@H](CCCN)C(=O)N[C@H](C(=O)N[C@@H](C)C(=O)N[C@@H](CC(N)=O)C(=O)N[C@@H](C)B3OC4C[C@@H]5C[C@@H](C5(C)C)[C@]4(C)O3)[C@@H](C)O)cc2)cc1 (stereo not given in full) ({Benzoyl(4-(4-hexylphenyl))}-[Orn]TAN-X1)
readout-name: Activity
result-number: -1.3

What value of Activity has been reported for the following compound? CCCCCCc1ccc(-c2ccc(C(=O)N[C@@H](CCCN)C(=O)N[C@H](C(=O)N[C@@H](C)C(=O)N[C@@H](CC(N)=O)C(=O)N[C@@H](C)B(O)O)[C@@H](C)O)cc2)cc1 ({Benzoyl(4-(4-hexylphenyl))}-[Orn]TAN-boroAla)
19.2

What value of Activity has been reported for the following compound? CCCCCCc1ccc(-c2c[nH]c3ccc(C(=O)N[C@@H](CCCN)C(=O)N[C@H](C(=O)N[C@@H](C)C(=O)N[C@H]4Cc5cn(nn5)CCO[C@@H]5C[C@@H]6OB(O[C@@H]6C5)[C@H](C)NC4=O)[C@@H](C)O)cc23)cc1
58.5

What value of Activity has been reported for the following compound? CCCCCCc1ccc(-c2ccc(C(=O)N[C@@H](Cc3cnc[nH]3)C(=O)N[C@H](C(=O)N[C@@H](C)C(=O)N[C@H]3Cc4cn(nn4)CCCN4C[C@@H]5OB(O[C@@H]5C4)[C@H](C)NC3=O)[C@@H](C)O)cc2)cc1
52

What value of Activity has been reported for the following compound? CCCCCCc1ccc(-c2ccc(C(=O)N[C@@H](CCCN)C(=O)N(C)[C@H](C(=O)N[C@@H](C)C(=O)N[C@H]3Cc4cn(nn4)CCCN4C[C@@H]5OB(O[C@@H]5C4)[C@H](C)NC3=O)[C@@H](C)O)cc2)cc1
40

* * *

Listed here: items and their measured Activity.
- target-under-test: Signal peptidase I (Escherichia coli K-12)
- Sequence (P00803 whole entry): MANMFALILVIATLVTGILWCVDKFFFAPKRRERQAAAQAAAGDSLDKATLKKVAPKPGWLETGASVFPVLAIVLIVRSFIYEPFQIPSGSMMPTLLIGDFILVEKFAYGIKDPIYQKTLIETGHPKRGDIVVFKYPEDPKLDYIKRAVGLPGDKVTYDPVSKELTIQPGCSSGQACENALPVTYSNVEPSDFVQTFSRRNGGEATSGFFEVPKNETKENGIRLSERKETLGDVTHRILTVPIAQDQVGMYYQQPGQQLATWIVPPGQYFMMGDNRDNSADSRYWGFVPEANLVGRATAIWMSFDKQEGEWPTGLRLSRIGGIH
- test-summary: Inhibition of Escherichia coli type 1 signal peptidase lepB assessed as residual activity at 0.0195 uM preincubated for 10 mins followed by Dabcyl-VGGTATAYGAFSRPGLE-(EDANS)-OH substrate addition measured after 2 hrs by FRET based assay (reference value: 100%)
Report the figure in % without appending any unit label.

structure-string: C[C@@H]1NC(=O)[C@@H](NC(=O)[C@H](C)NC(=O)[C@@H](NC(=O)[C@H](CCCN)NC(=O)c2ccc(=O)n(-c3ccccc3)c2)[C@@H](C)O)Cc2cn(nn2)CCO[C@@H]2C[C@@H]3OB1O[C@@H]3C2
unit-annotation: %
result-number: 104

What value of Activity has been reported for the following compound? CCCCCCc1ccc(-c2c[nH]c3ccc(C(=O)N[C@@H](CCCN)C(=O)N[C@H](C(=O)N[C@@H](C)C(=O)N[C@H]4Cc5cn(nn5)CCO[C@@H]5C[C@@H]6OB(O[C@@H]6C5)[C@H](C)NC4=O)[C@@H](C)O)cc23)cc1
101

What value of Activity has been reported for the following compound? C[C@@H]1NC(=O)[C@@H](NC(=O)[C@H](C)NC(=O)[C@@H](NC(=O)[C@H](CCCN)NC(=O)c2ccc(-c3ccccc3)cc2)[C@@H](C)O)Cc2cn(nn2)CCO[C@@H]2C[C@@H]3OB1O[C@@H]3C2
83.8

What value of Activity has been reported for the following compound? CCCCCCc1ccc(-n2cc(C(=O)N[C@@H](CCCN)C(=O)N[C@H](C(=O)N[C@@H](C)C(=O)N[C@H]3Cc4cn(nn4)CCO[C@@H]4C[C@@H]5OB(O[C@@H]5C4)[C@H](C)NC3=O)[C@@H](C)O)ccc2=O)cc1
111

* * *

- target-under-test: UniProt P00803
Square brackets hold non-standard residues; d marks the D form. Peptide text beside a SMILES is read from it. * marks the point of attachment. Benzoyl(4-(4-hexylphenyl)) = CCCCCCc1ccc(-c2ccc(C(=O)*)cc2)cc1; X1 = C[C@H](N*)B1OC2C[C@@H]3C[C@@H](C3(C)C)[C@]2(C)O1; Orn = NCCC[C@H](N)C(=O)O
I'd appreciate it if you marked entries MET when IC50 is lower than 200 nM and NOT MET when it is not.

Past entries and their recorded results:
compound: C[C@@H]1NC(=O)[C@@H](NC(=O)[C@H](C)NC(=O)[C@@H](NC(=O)[C@H](CCCN)NC(=O)C#Cc2ccc(-c3ccccc3)cc2)[C@@H](C)O)Cc2cn(nn2)CCO[C@@H]2C[C@@H]3OB1O[C@@H]3C2
class: NOT MET
--
compound: CCCCCCc1ccc(-c2ccc(C(=O)N[C@@H](CCCN)C(=O)N[C@H](C(=O)N[C@@H](C)C(=O)N[C@H]3Cc4cn(nn4)CCO[C@@H]4C[C@@H]5OB(O[C@@H]5C4)[C@H](C)NC3=O)[C@@H](C)O)cc2)cc1
class: MET
--
compound: CCCCCCc1ccc(-c2c[nH]c3ccc(C(=O)N[C@@H](CCCN)C(=O)N[C@H](C(=O)N[C@@H](C)C(=O)N[C@H]4Cc5cn(nn5)CCO[C@@H]5C[C@@H]6OB(O[C@@H]6C5)[C@H](C)NC4=O)[C@@H](C)O)cc23)cc1
class: NOT MET

Strictly below 200 nM: is that where IC50 of C[C@@H]1NC(=O)[C@@H](NC(=O)[C@H](C)NC(=O)[C@@H](NC(=O)[C@H](CCCN)NC(=O)c2ccc(-c3ccccc3)cc2)[C@@H](C)O)Cc2cn(nn2)CCO[C@@H]2C[C@@H]3OB1O[C@@H]3C2 sits?
MET

Strictly below 200 nM: is that where IC50 of CCCCCCc1ccc(-c2ccc(C(=O)N[C@@H](CCCN)C(=O)N[C@H](C(=O)N[C@@H](C)C(=O)N[C@@H](CC(N)=O)C(=O)N[C@@H](C)B3OC4C[C@@H]5C[C@@H](C5(C)C)[C@]4(C)O3)[C@@H](C)O)cc2)cc1 (some centres undefined) ({Benzoyl(4-(4-hexylphenyl))}-[Orn]TAN-X1) sits?
MET

Strictly below 200 nM: is that where IC50 of C[C@@H]1NC(=O)[C@@H](NC(=O)[C@H](C)NC(=O)[C@@H](NC(=O)[C@H](CCCN)NC(=O)c2ccc(=O)n(-c3ccccc3)c2)[C@@H](C)O)Cc2cn(nn2)CCO[C@@H]2C[C@@H]3OB1O[C@@H]3C2 sits?
NOT MET

Strictly below 200 nM: is that where IC50 of CCCCCCc1ccc(-c2ccc(C(=O)N[C@@H](CCCN)C(=O)N[C@H](C(=O)N[C@@H](C)C(=O)N[C@H]3Cc4cn(nn4)CCN4C[C@@H]5OB(O[C@@H]5C4)[C@H](C)NC3=O)[C@@H](C)O)cc2)cc1 sits?
MET

Strictly below 200 nM: is that where IC50 of CCCCCCc1ccc(-n2cc(C(=O)N[C@@H](CCCN)C(=O)N[C@H](C(=O)N[C@@H](C)C(=O)N[C@H]3Cc4cn(nn4)CCO[C@@H]4C[C@@H]5OB(O[C@@H]5C4)[C@H](C)NC3=O)[C@@H](C)O)ccc2=O)cc1 sits?
NOT MET

Strictly below 200 nM: is that where IC50 of CCCCCCc1ccc(-c2ccc(C(=O)N[C@@H](CCCN)C(=O)N[C@H](C(=O)N[C@@H](C)C(=O)N[C@H]3Cc4cn(nn4)CCCN4C[C@@H]5OB(O[C@@H]5C4)[C@H](C)NC3=O)[C@@H](C)O)cc2)cc1 sits?
MET
